- ASSAY TARGET: Nav 1.7 (Homo sapiens)
- Construct: expressed in transfected cells
- EXPERIMENT NOTES: Whole-cell voltage clamp electrophysiology, automated patch clamp (marker c in Table of Examples)
- Format: cell-based
- TEST CONDITIONS: marker c = Automated patch clamp data; read-out: Nav 1.7 activity
MEASUREMENT NAME: IC50 (µM)

molecule="Nc1nc(Nc2ccccc2)nc(-c2noc(C(=O)N3Cc4ccccc4C3)n2)n1 [Example 230]" measured_value=9.25

(I) CN(c1ccccc1)c1nc(N)nc(-c2noc(-c3ccc(=O)[nH]c3)n2)n1 [Example 334]
(II) CN(C)S(=O)(=O)N1CCC(c2nc(-c3nc(N)nc(Nc4ccccc4)n3)no2)CC1 [Example 517]
Prompt line: Which has the higher IC50, I or II ? Write down the label of the entry you select.
Response line: I

###

- ASSAY TARGET: Nav 1.7 (Homo sapiens)
- Construct: expressed in transfected cells
- EXPERIMENT NOTES: Whole-cell voltage clamp electrophysiology, automated patch clamp (marker c in Table of Examples)
- Type: cell-based
- TEST CONDITIONS: marker c = Automated patch clamp data; read-out: Nav 1.7 activity
pIC50: −log10 of the molar value.
MEASUREMENT NAME: pIC50

Example results:
molecule=CN(c1ccccc1)c1nc(N)nc(-c2noc(-c3ccc(COCC(F)(F)F)o3)n2)n1 measurement_name=pIC50 measured_value=6.33
molecule=CN(c1ccccc1)c1nc(N)nc(-c2noc(N3CCC(NC(=O)C(F)(F)F)CC3)n2)n1 measurement_name=pIC50 measured_value=5.07
molecule=COCCN(c1ccccc1)c1nc(N)nc(-c2noc(-c3ccc(COCC(F)(F)F)nc3)n2)n1 measurement_name=pIC50 measured_value=6.86
molecule=CN(c1ccccc1)c1nc(N)nc(-c2noc(-c3ccc(SCCC(F)(F)F)nc3)n2)n1 measurement_name=pIC50 measured_value=6.92
molecule=Nc1nc(Nc2ccccc2)nc(-c2noc(-c3ccc(COCC4CC4)nc3)n2)n1 measurement_name=pIC50 measured_value=7.36

(I) CC(C)[S+]([O-])C1CCN(c2nc(-c3nc(N)nc(N(C)c4ccccc4)n3)no2)CC1 (stereo not shown)
(II) CN(c1ccccc1)c1nc(N)nc(-c2noc(-c3ccc(S(=O)(=O)CCC(F)(F)F)nc3)n2)n1
Prompt line: // compare: I vs II , metric pIC50, want the smaller Answer by stating the label of the chosen item.
Response line: I
(I: 5.17, II: 6.54)

###

- ASSAY TARGET: Nav 1.7 (Homo sapiens)
- Construct: expressed in transfected cells
- EXPERIMENT NOTES: Whole-cell voltage clamp electrophysiology, manual patch clamp (marker b in Table of Examples)
- Type: cell-based
- TEST CONDITIONS: marker b = Manual patch clamp data; read-out: Nav 1.7 activity
pIC50: −log10 of the molar value.
MEASUREMENT NAME: pIC50

Worked set:
molecule="CN(c1ccccc1)c1nc(N)nc(-c2noc(C3CCN(Cc4ccccc4)C3)n2)n1 (centres unmarked)" measured_value=7.01
molecule=Nc1nc(Nc2ccccc2)nc(-c2noc(-c3ccc(COCC(F)(F)F)nc3)n2)n1 measured_value=7.62
molecule=CN(c1ccccc1)c1nc(N)nc(-c2noc(N3CCC(OCC(F)(F)F)CC3)n2)n1 measured_value=6.15

(P) CN(c1ccccc1)c1nc(N)nc(-c2noc(-c3ccc([S+]([O-])CC(F)(F)F)nc3)n2)n1 (centres unmarked)
(Q) CN(c1ccccc1)c1nc(N)nc(-c2noc(-c3ccn(CC(F)(F)F)n3)n2)n1
Prompt line: P or Q : whose pIC50 is greater? Output the label that corresponds to your choice.
Response line: P
(P: 6.56, Q: 6.09)

(a) CN(c1ccccc1)c1nc(N)nc(-c2noc(N3CCC(COCC4CC4)CC3)n2)n1
(b) CN(c1ccccc1)c1nc(N)nc(-c2noc(-c3cccnc3OCC(F)(F)F)n2)n1
Prompt line: Exercise: compare a and b ; which one has the greater pIC50? // output: label of the selected item
Response line: b

(I) CN(c1ccccc1)c1nc(N)nc(-c2noc(C(=O)N3CCC(OCC(F)(F)F)CC3)n2)n1
(II) CN(c1ccccc1)c1nc(N)nc(-c2noc(-c3ccnc(OCC(F)(F)F)c3)n2)n1
Prompt line: Compare I and II by numeric pIC50 and name the larger one. Please indicate the selected item by its label.
Response line: I
(I: 6.40, II: 6.05)

(I) Nc1nc(Nc2ccccc2)nc(-c2noc(-c3ncccc3F)n2)n1
(II) CN(c1nc(N)nc(-c2noc(-c3ccc(OCC(F)(F)F)nc3)n2)n1)c1cccc(F)c1F
(III) COC1CCN(c2nc(-c3nc(N)nc(Nc4ccccc4)n3)no2)CC1
(IV) CN(c1ccccc1)c1nc(N)nc(-c2noc(N3CC(Oc4ccccc4)C3)n2)n1
(V) Cc1csc(-c2nc(-c3nc(N)nc(N(C)c4ccccc4)n3)no2)n1
Prompt line: Given 5 molecules, produce a descending ranking by pIC50. Give the labels in the order specified.
Response line: II, IV, I, III, V

###

- ASSAY TARGET: Nav 1.7 (Homo sapiens)
- Construct: expressed in transfected cells
- EXPERIMENT NOTES: Whole-cell voltage clamp electrophysiology, manual patch clamp (marker b in Table of Examples)
- Type: cell-based
- TEST CONDITIONS: marker b: Manual patch clamp data; read-out: Nav 1.7 activity
pIC50: −log10 of the molar value.
MEASUREMENT NAME: pIC50

molecule="CN(c1nc(N)nc(-c2noc(-c3ccco3)n2)n1)c1cccc(Cl)c1F [Example 106]" measurement_name=pIC50 measured_value=7.09

(1) CN(c1nc(N)nc(-c2noc(-c3ccco3)n2)n1)c1cc(Cl)ccc1F [Example 103]
(2) Nc1nc(Nc2ccccc2)nc(-c2noc(-c3ccccn3)n2)n1 [Example 39]
(3) CN(c1ccccc1)c1nc(N)nc(-c2noc(-c3ccc(OCC(F)(F)F)nc3)n2)n1 [Example 67]
Prompt line: Sort (3 molecules) by pIC50: min first. Provide the ranking by listing each label in its place in the requested order.
Response line: 2, 3, 1

(A) Nc1nc(Nc2cccc(F)c2)nc(-c2noc(-c3ccco3)n2)n1 [Example 117]
(B) COc1cccc(F)c1-c1nc(-c2nc(N)nc(N(C)c3ccccc3)n2)no1 [Example 81]
(C) CN(c1ccccc1)c1nc(N)nc(-c2noc(-c3ccn[nH]3)n2)n1 [Example 61]
(D) CN(c1ccccc1)c1nc(N)nc(-c2noc(-c3ccc(Cl)cc3)n2)n1 [Example 36]
(E) Cc1cccc(Nc2nc(N)nc(-c3noc(-c4ccco4)n3)n2)c1F [Example 112]
Prompt line: Hey, quick one: sort these by pIC50, low to high? Answer by writing out the labels in the requested order.
Response line: C, D, E, A, B
(C: 6.25, D: 6.78, E: 7.06, A: 7.38, B: 7.68)

(A) Nc1nc(Nc2cccc(Cl)c2F)nc(-c2noc(-c3ccco3)n2)n1 [Example 111]
(B) CN(c1ccccc1)c1nc(N)nc(-c2noc(-c3ccc(OC(F)(F)F)nc3)n2)n1 [Example 133]
Prompt line: Hi team, can someone confirm which has the larger pIC50: A or B ? Thanks. Choose, then provide that item's label.
Response line: A

(1) CN(c1cccc(F)c1)c1nc(N)nc(-c2noc(-c3ccc(OCC4CC4)nc3)n2)n1 [Example 135]
(2) CN(c1cccc(F)c1)c1nc(N)nc(-c2noc(-c3ccco3)n2)n1 [Example 15]
Prompt line: Compare pIC50: is it lower for 1 or for 2 ? Returns: label corresponding to the selected item.
Response line: 2

###

- ASSAY TARGET: Nav 1.7 (Homo sapiens, UniProt Q15858)
- Construct: expressed in transfected cells
- Sequence (Q15858 whole entry): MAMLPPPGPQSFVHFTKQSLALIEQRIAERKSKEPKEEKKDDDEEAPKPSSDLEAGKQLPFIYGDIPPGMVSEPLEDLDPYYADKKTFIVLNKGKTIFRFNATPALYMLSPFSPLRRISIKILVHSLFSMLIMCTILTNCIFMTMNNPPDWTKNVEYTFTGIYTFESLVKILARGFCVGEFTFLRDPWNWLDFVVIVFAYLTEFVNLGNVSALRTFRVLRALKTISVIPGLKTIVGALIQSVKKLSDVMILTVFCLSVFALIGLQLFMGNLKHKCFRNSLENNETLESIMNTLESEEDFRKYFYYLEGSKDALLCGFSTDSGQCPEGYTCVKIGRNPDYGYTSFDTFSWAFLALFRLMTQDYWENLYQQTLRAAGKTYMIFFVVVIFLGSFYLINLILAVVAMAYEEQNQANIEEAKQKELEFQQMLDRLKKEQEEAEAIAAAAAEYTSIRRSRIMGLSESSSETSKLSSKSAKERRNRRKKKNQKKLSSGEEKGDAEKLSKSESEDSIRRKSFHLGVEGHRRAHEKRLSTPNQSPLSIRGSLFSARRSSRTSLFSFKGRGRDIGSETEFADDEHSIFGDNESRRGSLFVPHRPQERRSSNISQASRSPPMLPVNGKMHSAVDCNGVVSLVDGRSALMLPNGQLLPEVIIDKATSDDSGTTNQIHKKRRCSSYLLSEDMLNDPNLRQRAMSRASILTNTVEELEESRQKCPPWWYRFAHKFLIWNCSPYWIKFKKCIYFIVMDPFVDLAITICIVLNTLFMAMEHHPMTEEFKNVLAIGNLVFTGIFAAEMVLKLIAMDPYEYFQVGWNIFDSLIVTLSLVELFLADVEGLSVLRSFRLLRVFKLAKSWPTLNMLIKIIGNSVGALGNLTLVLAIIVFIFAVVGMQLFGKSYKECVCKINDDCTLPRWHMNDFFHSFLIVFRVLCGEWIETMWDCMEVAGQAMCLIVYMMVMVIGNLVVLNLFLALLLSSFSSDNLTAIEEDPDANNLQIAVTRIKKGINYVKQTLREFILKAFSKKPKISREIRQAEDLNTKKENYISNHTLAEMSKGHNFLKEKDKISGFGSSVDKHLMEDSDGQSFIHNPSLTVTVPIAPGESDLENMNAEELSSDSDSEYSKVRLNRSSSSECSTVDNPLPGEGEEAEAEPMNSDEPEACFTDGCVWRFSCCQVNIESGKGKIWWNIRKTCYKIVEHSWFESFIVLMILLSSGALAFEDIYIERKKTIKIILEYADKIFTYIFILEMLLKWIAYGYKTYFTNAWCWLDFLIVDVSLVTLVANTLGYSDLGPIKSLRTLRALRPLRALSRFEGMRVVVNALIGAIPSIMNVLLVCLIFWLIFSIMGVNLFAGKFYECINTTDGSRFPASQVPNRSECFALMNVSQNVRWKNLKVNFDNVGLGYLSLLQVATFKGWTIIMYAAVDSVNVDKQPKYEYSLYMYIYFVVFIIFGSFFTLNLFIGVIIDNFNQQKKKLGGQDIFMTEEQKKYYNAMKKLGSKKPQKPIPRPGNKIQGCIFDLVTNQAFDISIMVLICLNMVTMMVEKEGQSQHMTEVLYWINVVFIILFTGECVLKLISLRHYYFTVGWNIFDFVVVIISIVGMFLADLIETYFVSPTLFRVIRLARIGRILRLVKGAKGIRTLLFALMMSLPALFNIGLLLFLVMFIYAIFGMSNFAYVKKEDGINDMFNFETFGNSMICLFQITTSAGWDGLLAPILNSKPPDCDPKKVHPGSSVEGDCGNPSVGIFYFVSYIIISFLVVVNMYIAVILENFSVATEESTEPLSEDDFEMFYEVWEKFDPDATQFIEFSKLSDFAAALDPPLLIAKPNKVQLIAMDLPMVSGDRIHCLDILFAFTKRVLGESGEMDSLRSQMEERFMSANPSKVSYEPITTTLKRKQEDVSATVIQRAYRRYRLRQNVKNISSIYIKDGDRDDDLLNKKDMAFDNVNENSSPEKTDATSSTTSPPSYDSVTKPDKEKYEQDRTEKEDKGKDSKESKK
- EXPERIMENT NOTES: Whole-cell voltage clamp electrophysiology, automated patch clamp (marker c in Table of Examples)
- Format: cell-based
- TEST CONDITIONS: marker c = Automated patch clamp data; read-out: Nav 1.7 activity
pIC50: −log10 of the molar value.
MEASUREMENT NAME: pIC50

// worked examples, pIC50 included
compound=CC(C)NC(=O)c1nc(-c2nc(N)nc(Nc3cccc(F)c3)n2)no1 measured_value=5.90
compound="CN(c1ccccc1)c1nc(N)nc(-c2noc(C3CCN(S(=O)(=O)c4ccccc4)C3)n2)n1 (stereo not shown)" measured_value=5.34

(a) COc1ccc(CNC(=O)c2nc(-c3nc(N)nc(N(C)c4ccccc4)n3)no2)cn1
(b) CN(c1ccccc1)c1nc(N)nc(-c2noc(-c3ccnn3CC(F)(F)F)n2)n1
Prompt line: Sorting by pIC50 in descending order, would a or b appear first? Your choice should be expressed through its label.
Response line: a
(a: 5.92, b: 5.49)

###

- ASSAY TARGET: Nav 1.7 (Homo sapiens, UniProt Q15858)
- Construct: expressed in transfected cells
- EXPERIMENT NOTES: Whole-cell voltage clamp electrophysiology, automated patch clamp (marker c in Table of Examples)
- Format: cell-based
- TEST CONDITIONS: marker c = Automated patch clamp data; read-out: Nav 1.7 activity
pIC50: −log10 of the molar value.
MEASUREMENT NAME: pIC50

chem_smiles=CN(c1ccccc1)c1nc(N)nc(-c2noc(-c3ccc(CN4CCOCC4)nc3)n2)n1 measured_value=5.95
chem_smiles=Nc1nc(Nc2ccccc2)nc(-c2noc(C(=O)N3CCC(OCC(F)(F)F)CC3)n2)n1 measured_value=5.89
chem_smiles=CN(c1ccccc1)c1nc(N)nc(-c2noc(-c3ccn(C)n3)n2)n1 measured_value=5.62
chem_smiles=Nc1nc(Nc2ccccc2)nc(-c2noc(C(=O)N3CCC(COCC4CC4)CC3)n2)n1 measured_value=5.74
chem_smiles=CN(c1ccccc1)c1nc(N)nc(-c2noc(N3CC(OCC4CC4)C3)n2)n1 measured_value=6.04

(A) CN(c1ccccc1)c1nc(N)nc(-c2noc(C3CN(Cc4ccccc4)C3)n2)n1
(B) Nc1nc(Nc2cccc(F)c2)nc(-c2noc(C(=O)NC3Cc4ccccc4C3)n2)n1
(C) CN(c1ccc(F)nc1)c1nc(N)nc(-c2noc(-c3ccc(OCC(F)(F)F)nc3)n2)n1
Prompt line: # rank_down: sort by pIC50, max first Reply with the item labels sorted in the order that was asked for.
Response line: B, A, C
